measure: melting point

molecule	measure	measured
O=C(Nc1ccc(CN2CCCCC2)cc1)c1ccc2ccc(-c3ccccc3)cc2c1	melting point	177 to 178 °C
Cc1cccc(C)c1N(C(C)CCl)S(C)(=O)=O (centres undefined)	melting point	126 to 128 °C
COC(=O)c1ccc(C(=O)CCC(=O)c2ccc3c(c2)C(C)(C)CCC3(C)C)cc1	melting point	126 to 129 °C
O=C(O)CCc1conc1-c1ccc(F)c(Br)c1	melting point	151 to 152 °C
O=c1[nH]c2c(Cl)ncnc2n1CCN1CCC(Nc2nc3ccccc3n2Cc2ccc(F)cc2)CC1	melting point	266 °C

Query :: For the molecule NS(=O)(=O)c1ccc(NC(=O)Nc2ccc(Oc3ccccc3)cc2)cc1 , what melting point is on record?
Result :: 236 to 237 °C

Query :: For the molecule Cc1nc(N2CCc3ccccc3CC2)c(C#N)c(=O)n1C , what melting point is on record?
Result :: 155 to 158 °C

Query :: For the molecule CCC(O)(c1ccc(OCCCN2CCCCC2)cc1)c1ccccc1OC (centres undefined) , what melting point is on record?
Result :: 110 to 111 °C

Query :: For the molecule O=P1(Oc2c(Cl)cc(Cl)cc2Cl)OCC2(CO1)COP(=O)(Oc1c(Cl)cc(Cl)cc1Cl)OC2 (centres undefined) , what melting point is on record?
Result :: 283 °C

Query :: For the molecule CNC(=O)[C@@H]1CCCCN1S(=O)(=O)c1ccc(Cl)c(COc2cccc3c(-n4ccnc4)cc(C)nc23)c1Cl , what melting point is on record?
Result :: 74 °C

---

Known melting point of a selection of compounds

Query :: For the compound COC(=O)Cc1ccc(OCCNC(=O)C2Cc3ccccc3N2S(=O)(=O)c2ccc(-c3ccc(F)cc3F)cc2)cc1 (centres undefined) , what melting point is on record?
Result :: 60 to 64 °C

Query :: For the compound NCCCCCCc1ccc(C2=NNC(=O)CC2)cc1 , what melting point is on record?
Result :: 153 to 154 °C

Query :: For the compound CC(C)[C@H](NC(=O)OCc1csc(N2CCOCC2)n1)C(=O)N[C@@H](Cc1ccccc1)[C@@H](O)C[C@H](Cc1ccccc1)NC(=O)OCc1cncs1 , what melting point is on record?
Result :: 146 to 148 °C

Query :: For the compound O=C(c1ccccc1)c1cnn2c1NCCC2c1ccncc1 (centres undefined) , what melting point is on record?
Result :: 186 to 189 °C

---

measure: melting point

compound	measured
OC(CCCN1CCN(c2noc3ccccc23)CC1)c1ccc(F)cc1 (centres undefined)	142 to 144 °C
O=C(O)C1C(c2ccc3c(c2)OCO3)c2ccccc2C1c1ccc2c(c1)OCO2 (racemic)	182 to 185 °C
CCCC(C)c1nn(-c2ccc(C(F)(F)F)cn2)cc1CCCO (centres undefined)	72 to 73 °C

Okay, now this compound:
Query :: For the compound CCNC(=O)c1c(-c2ccccc2)cccc1[Si](C)(C)C , what melting point is on record?
Result :: 159 to 160 °C

---

measure: melting point

compound	melting point
CC(=O)c1nc2cc(Cl)c(OCC(F)(F)F)cc2cc1OCc1ccccc1	110 to 112 °C
Cc1onc(-c2ccc(Br)o2)c1-c1ccccc1	93 to 96 °C
COc1ccccc1CC(=O)c1c(O)c2cccnc2n(-c2ccccc2)c1=O	203 to 205 °C
N#Cc1cc2c([nH]c1=O)CCc1ccccc1-2	301 to 303 °C

Query :: For the compound CCCCNc1nc(N(CCCC)C2CC(C)(C)N(OC3CCCCC3)C(C)(C)C2)nc(N(CCCC)C2CC(C)(C)N(OC3CCCCC3)C(C)(C)C2)n1 , what melting point is on record?
Result :: 80 to 86 °C

Query :: For the compound N=C1CC(=O)Oc2cc(OCC(O)COc3ccccc3)ccc21 (stereo not given) , what melting point is on record?
Result :: 213 to 214 °C

Query :: For the compound COC(=O)c1sccc1NC(=O)OC(C)(C)C , what melting point is on record?
Result :: 88 to 89 °C

Query :: For the compound CCC=Cc1nc2ccccc2n1-c1cccc(C#N)c1C , what melting point is on record?
Result :: 125 °C

Query :: For the compound C=C1C(=O)Nc2ccc(C(F)(F)F)cc2CC1c1ccc(OC)cc1 (stereo not given) , what melting point is on record?
Result :: 181 to 183 °C

Query :: For the compound CCc1cccc(NCCCc2cn(C(c3ccccc3)(c3ccccc3)c3ccccc3)cn2)c1 , what melting point is on record?
Result :: 189 to 191 °C

---

Known melting point of a selection of compounds

Below, each entry is followed by its recorded melting point result.
compound	measure	measured
NCC1CCN(C(c2ccccc2)c2ccccc2)CC1	melting point	80 °C
Brc1cc(Br)c(CSCc2cc(Br)c(Br)cc2Br)cc1Br	melting point	173 to 175 °C
CCOC(=O)C(CC(=O)c1ccccc1C)(NC(C)=O)C(=O)OCC	melting point	146 to 147 °C
CCCc1ccc(NC(=O)c2ccccc2NCc2ccncc2)cc1C(F)(F)F	melting point	134 to 135 °C
CCN1C(=O)Cc2cc(C(=O)c3ccccc3)ccc21	melting point	134 to 136 °C

Query :: For the compound Nc1c2c(nc3cccc(Cl)c13)CCCC2 , what melting point is on record?
Result :: 144 to 145 °C

Query :: For the compound Cc1c(O)cc2c(c1C)N(C=O)C(C)C2 (stereo not given) , what melting point is on record?
Result :: 155 to 159 °C

Query :: For the compound COc1cc(Nc2c(C#N)cnc3cc(-c4ccc(CN(C)C)cc4)sc23)c(Cl)cc1Cl , what melting point is on record?
Result :: 224 to 225 °C

Query :: For the compound Cc1ccc(-c2cn(-c3ccc4c(c3)c3ccccc3n4C)c(-c3ccc(C)s3)n2)s1 , what melting point is on record?
Result :: 248 to 255 °C

Query :: For the compound CC(C)Oc1cc(CCCOc2cc(CCC(=O)O)n(-c3ccccc3)n2)cc(COc2ccc(Cl)cc2Cl)c1 , what melting point is on record?
Result :: 104 to 106 °C

Query :: For the compound CCCCCCCCCCCCCCCCCCOc1ccc(C(=O)C(=O)N(CC(=O)O)CC(=O)O)cc1 , what melting point is on record?
Result :: 130 to 132 °C

Query :: For the compound c1ccc(Cn2cncc2-c2cnc(-c3ccccc3)nc2)cc1 , what melting point is on record?
Result :: 140 °C

Query :: For the compound CCC(CC)(CC(=O)c1ccc(OC)c(OC)c1)C(=O)O , what melting point is on record?
Result :: 106 to 109 °C

Query :: For the compound COc1ccc2c(c1)C(=O)C(=O)N2CCN(C(C)C)C(C)C , what melting point is on record?
Result :: 81 to 82.5 °C

Query :: For the compound CN(C)C=C1CN=C(c2ccccc2)c2ccccc2C1=O , what melting point is on record?
Result :: 131 to 133 °C

Query :: For the compound O=C(NCc1ccc(Br)cc1)Nc1cccc2[nH]ccc12 , what melting point is on record?
Result :: 198 °C

Query :: For the compound Cc1ccccc1-c1cccc(Nc2ccccc2)c1C#N , what melting point is on record?
Result :: 125 to 126 °C

Query :: For the compound CCCCCn1c(C2=CC(=O)c3ccccc3C2=O)ccc1C1=CC(=O)c2ccccc2C1=O , what melting point is on record?
Result :: 128 °C

Query :: For the compound COC(=O)NOCC(=O)OCOC(=O)Oc1c(Br)cc(C#N)cc1Br , what melting point is on record?
Result :: 110 to 111 °C

Query :: For the compound O[C@@H](CNCCOc1ccc2oc(-c3noc(C(F)(F)F)n3)cc2c1)c1cccc(Cl)c1 , what melting point is on record?
Result :: 108 to 111 °C

---

Known melting point of a selection of molecules

Below, each entry is followed by its recorded melting point result.
molecule	measure	measured
C=CC1CCC2(C)C(CCC3C4CCC(=O)C4(C)CCC32)C1 (centres undefined)	melting point	100 to 102 °C
CN1CCN(c2cc3c(cc2F)c(=O)c(C(=O)O)cn3C2CSC2)CC1	melting point	231 to 237 °C
Cc1c(Cl)cc([N+](=O)[O-])c(NC(C)C)c1[N+](=O)[O-]	melting point	69 to 73 °C
CCOC(=O)CN(c1cccc2cc(-c3nccs3)n(COC)c12)S(=O)(=O)c1cccs1	melting point	124 to 125 °C

Query :: For the molecule COC12CC(CCN3CCC(c4c[nH]c5ccccc45)CC3)CN(C)C1Cc1c[nH]c3cccc2c13 (centres undefined) , what melting point is on record?
Result :: 153 to 156 °C

Query :: For the molecule CC(=O)OCC(C(OC(C)=O)c1ccc([N+](=O)[O-])cc1)[N+](=O)[O-] (centres undefined) , what melting point is on record?
Result :: 63 to 66 °C

Query :: For the molecule CCOC(=O)c1cc(-c2ccccc2)n(-c2cccc(C(N)=O)c2)c1C , what melting point is on record?
Result :: 238 to 239 °C

Query :: For the molecule CCOC(=O)CCn1nc(-c2cc(C(C)(C)C)c(O)c(C(C)(C)C)c2)c2cccnc21 , what melting point is on record?
Result :: 105 to 106 °C

Query :: For the molecule Cc1cc(Nc2ncnc3ccc(-c4ccoc4)cc23)ccc1OCc1ccccn1 , what melting point is on record?
Result :: 206 to 208 °C

Query :: For the molecule CC(C)(C)OC(=O)Nc1cc(N2CCC(OC3CCCCO3)C2)c(-c2ccc(F)cc2)cc1NC(=O)CC(=O)c1cccc(-n2ccnc2)c1 (centres undefined) , what melting point is on record?
Result :: 99 to 103 °C

The measured values listed here are drawn from a melting point compilation (Tetko et al.; mined from patent text by program, amines drawn as free bases though some values may be those of a salt).
